# System: Botryosphaeria dothidea
# assay_notes: In vitro mycelium growth test on malt agar medium
# Type: cell-based
# conditions_used: 50 ppm in malt agar, 22° C., colony diameter, Abbott formula
I'd appreciate it if you could supply In Vitro Efficacy Mycellium** values for the items below.
One number for each entry, in %.

The following compounds have reported results that may help.
compound	In Vitro Efficacy Mycellium**, %
CC(C)(C)C(O)(CCc1ccc(Cl)cc1)Cn1cncn1 (stereo not shown)	100
Cc1nn(C)c(F)c1C(=O)Nc1ccccc1C(C)CC(C)C (stereo not shown)	64
O=C(NCCc1ncc(C(F)(F)F)cc1Cl)c1ccccc1C(F)(F)F	55

// next entry
input: Identify the measured In Vitro Efficacy Mycellium** of `Cn1cc(C(=O)Nc2ccc(F)cc2-c2ccc(Cl)c(Cl)c2)c(C(F)F)n1` for Botryosphaeria dothidea.
output: 86
